Readings of MCF7 pAkt % inhibition for the listed binders
molecular target: human HER3 endogenously expressed on human cancer cells (SK-Br-3, BT-474, MCF7) (human, UniProt P21860 20-1342); assay: cell-based or functional assay
Recorded metric: MCF7 pAkt % inhibition (%)

Binder: MOR12605 (antibody, human IgG1, kappa, V domains shown, Tested as IgG) VH: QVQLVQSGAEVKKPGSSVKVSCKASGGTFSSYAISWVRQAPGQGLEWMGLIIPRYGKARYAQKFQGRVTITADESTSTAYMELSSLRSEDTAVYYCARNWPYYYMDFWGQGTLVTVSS VL: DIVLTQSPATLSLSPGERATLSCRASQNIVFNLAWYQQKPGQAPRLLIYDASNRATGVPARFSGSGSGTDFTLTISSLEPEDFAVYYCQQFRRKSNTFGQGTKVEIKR
Reported result: 76
--
Binder: MOR12604 (antibody, V domains shown, Tested as IgG) VH: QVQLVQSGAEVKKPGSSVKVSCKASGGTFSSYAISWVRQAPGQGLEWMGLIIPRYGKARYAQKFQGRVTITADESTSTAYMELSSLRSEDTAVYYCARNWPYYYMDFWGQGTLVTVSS VL: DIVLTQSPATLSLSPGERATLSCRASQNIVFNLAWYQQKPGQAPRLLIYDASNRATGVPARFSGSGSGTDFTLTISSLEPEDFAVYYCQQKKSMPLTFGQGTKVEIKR
Reported result: 74
--
Binder: MOR13666 (antibody, human IgG1, lambda, V domains shown, Tested as IgG) VH: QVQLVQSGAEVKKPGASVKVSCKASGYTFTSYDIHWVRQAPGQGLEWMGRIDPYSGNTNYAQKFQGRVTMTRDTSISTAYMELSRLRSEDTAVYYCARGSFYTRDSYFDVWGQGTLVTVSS VL: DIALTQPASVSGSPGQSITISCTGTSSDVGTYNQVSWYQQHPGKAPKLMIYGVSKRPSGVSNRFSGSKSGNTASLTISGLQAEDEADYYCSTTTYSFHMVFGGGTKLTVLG
Reported result: 72
